B1: ZER1 (parent)
chain: FDGPEAWGVCEPQREEVEERMWAA

# Variants of: B1
# method: protein stability index of a GFP-peptide fusion (GPS, HEK-293T) (PSI 1-6); higher = more stable;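 further: lentivirally expressed fusions sorted by FACS into six bins by GFP to DsRed ratio, PSI derived from sequencing read proportions per bin multiplied by bin number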
# conditions: c terminus: a fixed tail appended
observable: protein stability index
Number only, no unit.

Task item: Please supply the value of reported protein stability index for the item P12C
Reply: 2.33

Task item: Give protein stability index for F1W
Reply: 4.5

Task item: Tell me measured protein stability index for Q13N please.
Reply: 2.94

Task item: Query protein stability index for E5V
Reply: 3.33

Task item: Determine from records and report protein stability index for G8H
Reply: 2.33

Task item: Supply protein stability index value. Item: E5L
Reply: 1.64

Task item: Specify reported protein stability index for the variant shown: E11C
Reply: 2.15

Task item: Output protein stability index of P12V
Reply: 2.47

Task item: Fill in protein stability index for record W22R
Reply: 3.59

Task item: Quickly give me recorded protein stability index for C10Q
Reply: 3.26

Task item: For the variant E11D , report protein stability index.
Reply: 2.67

Task item: Give recorded protein stability index. Q13E
Reply: 2.86

Task item: Provide only the value of recorded protein stability index for E5Y
Reply: 2.76

Task item: State, in one line, measured protein stability index of C10Y
Reply: 2.86

Task item: Please look at this variant and report its protein stability index: G3C
Reply: 3.88

Task item: Read the entry C10K and write its reported protein stability index.
Reply: 3.48

Task item: Return reported protein stability index. Input variant: C10P
Reply: 3.64

Task item: Name the recorded protein stability index of the item G8Q in your answer.
Reply: 2.74

Task item: State its protein stability index: E19P
Reply: 2.21

Task item: Output measured protein stability index for this item: P4T
Reply: 3.25

Task item: Using the record for W7N , state its measured protein stability index.
Reply: 4.58

Task item: Return reported protein stability index. Input variant: A24N
Reply: 2.76

Task item: Identify measured protein stability index corresponding to E11F
Reply: 1.89

Task item: Indicate its recorded protein stability index; the variant in question is V17K
Reply: 2.41

Task item: Please list protein stability index recorded for the variant R20T
Reply: 3.23

Task item: Report protein stability index for R14D
Reply: 2.88

Task item: Annotate the variant C10D with its measured protein stability index.
Reply: 4.42

Task item: Given the variant V9R , write its reported protein stability index.
Reply: 2.5

Task item: Fill in reported protein stability index for this entry: D2I
Reply: 5.1

Task item: Determine from records and report protein stability index for E19F
Reply: 2.1

Task item: Note protein stability index for the variant shown: V17E
Reply: 3.18

Task item: Give reported protein stability index value for E11A
Reply: 1.87

Task item: Provide one value: measured protein stability index of P12I
Reply: 2.31

Task item: State its protein stability index for this variant: E5N
Reply: 1.95

Task item: # return recorded protein stability index for entry E16W
Reply: 1.63

Task item: Return protein stability index for the following variant: D2E
Reply: 2.08

Task item: Identify measured protein stability index corresponding to R20C
Reply: 2.6

Task item: Kindly indicate its recorded protein stability index. Item: A23G
Reply: 2.9

Task item: Assign protein stability index to the following record: E18L
Reply: 2.11

Task item: Identify measured protein stability index associated with M21N
Reply: 2.2
